test system: conscious rats; test: Determination of CNS toxicity: convulsions in conscious rats on increasing i.v. infusion; assay type: in vivo; conditions: rat, in vivo
Where a name gives a salt, the structure may show the parent alone.
measured metric: log10 cum conv dose (log10 of the value in µmol/kg)

- Cl.O[C@@H]1CCN(C2CCCC[C@@H]2OCCc2cc3ccccc3o2)C1 (stereo partly drawn): 1.82
- Brc1ccccc1CCO[C@H]1CCCCC1N1CCOCC1 (stereo partly drawn): 2.10
- COc1ccc(CCO[C@H]2CCCCC2N2CCOCC2)cc1OC (stereo partly drawn): 2.05
- COc1ccc(CCO[C@@H]2CCCC[C@H]2N2CC[C@@H](OC(C)=O)C2)cc1OC.Cl: 1.87
- CC(=O)OC1CCN([C@@H]2CCCCC2OCCc2cccc3ccccc23)C1.Cl (stereo partly drawn): 1.81
- COc1ccc(CCO[C@H]2CCCCC2N2CCC[C@@H]2CO)cc1OC.Cl (stereo partly drawn): 2.15
- Cl.Clc1cccc(Cl)c1COC1CCCC[C@H]1N1CCOCC1 (stereo partly drawn): 1.99
- COc1ccc(CCO[C@H]2CCCCC2N2CC[C@H](OC(C)=O)C2)cc1OC.Cl (stereo partly drawn): 1.72
- COc1ccc(CCO[C@@H]2CCCC[C@H]2N2CC[C@H](O)C2)cc1OC.Cl: 2.67
- Cl.Clc1cccc(Cl)c1CCOC1CCCC[C@H]1N1CCSC1 (stereo partly drawn): 2.52
- Cl.O=C1CCN(C2CCCC[C@@H]2OCCc2c(Cl)cccc2Cl)C1 (stereo partly drawn): 2.28
- c1ccc2c(CCO[C@H]3CCCCC3N3CCOCC3)cccc2c1 (stereo partly drawn): 1.97
- Cl.OC1CCN(C2CCCC[C@@H]2OCCc2ccccc2Br)C1 (stereo partly drawn): 1.83
- Brc1cccc(CCO[C@H]2CCCCC2N2CCOCC2)c1 (stereo partly drawn): 2.12
- COc1ccc(CCO[C@H]2CCCCC2N2CC[C@H](OCc3ccccc3)C2)cc1OC.Cl (stereo partly drawn): 1.58
- COc1ccc(CCO[C@H]2CCCCC2N2CC[C@H](O)C2)cc1OC.Cl (stereo partly drawn): 2.64
- Cl.OC1CCN([C@@H]2CCCC[C@@H]2OCCc2cccc3ccccc23)C1 (stereo partly drawn): 1.85
- Cl.OC1CCN(C2CCCC[C@@H]2OCCc2c(Cl)cccc2Cl)C1 (stereo partly drawn) [Compound 46]: 1.81
- Cl.OC1CCN(C2CCCC[C@@H]2OCCc2cccc3ccccc23)C1 (stereo partly drawn): 1.83
- COc1ccc(CCOC2CCCC[C@H]2N2CC=CC2)cc1OC.Cl (stereo partly drawn): 1.65
- COc1ccc(CCO[C@H]2CCCCC2N2CCC(O)C2)cc1OC (stereo partly drawn) [Compound 3, monohydrochloride]: 2.70
- COc1ccc(CCO[C@H]2CCCC[C@@H]2N2CC[C@H](O)C2)cc1OC.Cl: 2.65
- Cl.O=C1CCN(C2CCCC[C@@H]2OCC(c2ccccc2)c2ccccc2)C1 (stereo partly drawn): 2.19
- COc1ccc(CCO[C@H]2CCCCC2N2CC[C@@H](OCc3ccccc3)C2)cc1OC.Cl (stereo partly drawn): 1.71
- c1ccc2cc(CCO[C@H]3CCCCC3N3CCOCC3)ccc2c1 (stereo partly drawn): 1.93
- COc1ccc(CCOC2CCCC[C@H]2N2CCC(=O)C2)cc1OC.Cl (stereo partly drawn): 2.37
- COc1ccc(CCO[C@H]2CCCC[C@@H]2N2CC[C@@H](O)C2)cc1OC.Cl: 2.70
- COc1ccc(CCCO[C@H]2CCCCC2N2CCOCC2)cc1OC.Cl (stereo partly drawn): 2.04
- Cl.O[C@@H]1CCN(C2CCCC[C@@H]2OCCc2ccccc2C(F)(F)F)C1 (stereo partly drawn): 2.01
- COc1ccc(CCO[C@H]2CCCCC2N2CCCC2)cc1OC.Cl (stereo partly drawn): 2.07
- Brc1ccc(OCCO[C@H]2CCCCC2N2CCOCC2)cc1 (stereo partly drawn): 1.92
- COc1ccc(CCCCO[C@H]2CCCCC2N2CCOCC2)cc1OC.Cl (stereo partly drawn): 1.82
- Cl.O=C1CCN([C@@H]2CCCCC2OCc2c(Cl)cccc2Cl)C1 (stereo partly drawn): 2.33
- Cl.OC1CCN(C2CCCC[C@@H]2OCCn2ccc3ccccc32)C1 (stereo partly drawn): 2.05
- c1ccc2cc(OCCO[C@H]3CCCCC3N3CCOCC3)ccc2c1 (stereo partly drawn): 1.79
- c1cc(CCO[C@H]2CCCCC2N2CCOCC2)c2ccsc2c1 (stereo partly drawn): 1.73
